Molecular target: T1, cSNK:BSA conjugate (bovine, head-to-tail cyclized; conjugated to BSA carrier)
T1 construct: also called BSA-cSNK
T1 sequence (P02769 25-607 limits assumed): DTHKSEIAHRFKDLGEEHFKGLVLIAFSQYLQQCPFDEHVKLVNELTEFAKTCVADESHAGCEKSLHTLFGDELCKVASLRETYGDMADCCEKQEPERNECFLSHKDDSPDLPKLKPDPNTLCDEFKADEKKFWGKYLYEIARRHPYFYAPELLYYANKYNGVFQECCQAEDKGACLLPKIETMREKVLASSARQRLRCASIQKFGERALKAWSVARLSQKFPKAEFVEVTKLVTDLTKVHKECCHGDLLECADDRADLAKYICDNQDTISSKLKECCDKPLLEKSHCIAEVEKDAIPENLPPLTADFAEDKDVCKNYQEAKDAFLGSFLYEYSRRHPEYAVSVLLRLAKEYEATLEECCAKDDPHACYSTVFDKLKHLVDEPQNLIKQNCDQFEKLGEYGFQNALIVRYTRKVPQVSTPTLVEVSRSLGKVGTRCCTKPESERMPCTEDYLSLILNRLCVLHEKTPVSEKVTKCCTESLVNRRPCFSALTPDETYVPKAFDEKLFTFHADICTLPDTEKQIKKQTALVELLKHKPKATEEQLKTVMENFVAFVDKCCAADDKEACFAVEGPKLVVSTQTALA
Assay: BLI 2:1 fit, site 2 (KD2); 3.13 nM row
test.readout: pKd
pKd (log units): -log10 of the concentration in mol/L.

Worked set:
{"columns": ["binder", "pKd"],
 "data": [
  ["rehu5E3-IgG4 (antibody, V domains shown, human IgG4/kappa; also called IgG4 rehu version) VH: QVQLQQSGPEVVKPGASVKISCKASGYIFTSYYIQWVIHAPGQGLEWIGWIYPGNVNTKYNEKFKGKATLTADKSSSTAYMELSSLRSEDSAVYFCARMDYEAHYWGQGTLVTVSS VL: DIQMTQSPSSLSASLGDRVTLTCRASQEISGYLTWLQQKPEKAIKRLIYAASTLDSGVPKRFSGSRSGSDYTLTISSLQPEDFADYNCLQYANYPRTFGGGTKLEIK", 8.40],
  ["hu5E3-IgG1 (antibody, V domains shown, human IgG1/kappa; also called humanized 5E3 IgG1; IHA variant) VH: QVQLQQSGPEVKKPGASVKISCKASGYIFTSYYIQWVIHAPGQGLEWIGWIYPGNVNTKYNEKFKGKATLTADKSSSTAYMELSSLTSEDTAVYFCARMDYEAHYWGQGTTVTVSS VL: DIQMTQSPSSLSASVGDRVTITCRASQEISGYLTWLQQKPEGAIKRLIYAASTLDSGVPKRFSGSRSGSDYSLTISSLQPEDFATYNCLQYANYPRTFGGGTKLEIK", 8.74]
]}

Give its pKd value. Item: hu5E3-IgG2 (antibody, V domains shown, human IgG2/kappa; also called humanized 5E3 IgG2) VH: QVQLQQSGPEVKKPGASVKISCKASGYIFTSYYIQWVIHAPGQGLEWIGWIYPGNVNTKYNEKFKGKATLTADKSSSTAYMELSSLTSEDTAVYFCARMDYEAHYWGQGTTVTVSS VL: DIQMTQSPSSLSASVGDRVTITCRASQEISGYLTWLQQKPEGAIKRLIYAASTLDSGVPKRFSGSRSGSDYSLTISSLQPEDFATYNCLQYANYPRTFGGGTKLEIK
8.19

Give its pKd value. Item: murine monoclonal antibody 5E3 (antibody, V domains shown, mouse antibody of the 5E3 hybridoma; also called murine 5E3; m5E3) VH: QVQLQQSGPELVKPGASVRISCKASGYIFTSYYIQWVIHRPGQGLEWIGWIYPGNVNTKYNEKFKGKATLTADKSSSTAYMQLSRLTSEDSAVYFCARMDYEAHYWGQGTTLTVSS VL: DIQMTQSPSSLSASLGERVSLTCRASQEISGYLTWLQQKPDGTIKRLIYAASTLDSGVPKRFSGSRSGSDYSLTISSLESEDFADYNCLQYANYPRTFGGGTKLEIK
8.80
